- System: C. elegans
- assay_procedure: microbe, parasite or virus in culture
- particulars: Caenorhabditis elegans, 0 h, read-out: Percentage of motility inhibition 0 h, Table S2, C. elegans SS assay, 110 μM, 0 h, averages of 4 data points
// values below are reported inhibition at 110 µM
Give just the numeric value; % need not be written.

Sample answers from the record:
* O=c1c(O)c(-c2ccc(O)cc2O)oc2cc(O)cc(O)c12 [Morin] | 44
* COc1cc2c3c(c1OC)-c1ccccc1C[C@H]3N(C)CC2 [Nuciferine] | 0
* C[C@H](Cc1ccc(O)c(O)c1)[C@@H](C)Cc1ccc(O)c(O)c1 [Masoprocol] | 7
* C[C@H]1CC[C@]2(NC1)O[C@H]1C[C@H]3[C@@H]4CC[C@H]5C[C@@H](O)CC[C@]5(C)[C@H]4CC[C@]3(C)[C@H]1[C@@H]2C [Tomatidine] | 6
* Oc1cc(O)c2c(c1)O[C@H](c1ccc(O)c(O)c1)[C@H](O)[C@H]2c1c(O)cc(O)c2c1O[C@H](c1ccc(O)c(O)c1)[C@H](O)C2 [Procyanidin B2] | 14

Request - read-out inhibition at 110 µM | tested on C. elegans | compound CCCCN(CCCC)CC(O)c1cc(Cl)cc2c1-c1ccc(Cl)cc1/C2=C/c1ccc(Cl)cc1 (stereo not drawn) [Lumefantrine]
0

Quick one: CC(C)=CCC[C@](C)(O[C@@H]1O[C@H](CO)[C@@H](O)[C@H](O)[C@H]1O)[C@H]1CC[C@]2(C)[C@@H]1[C@H](O)C[C@@H]1[C@@]3(C)CC[C@H](O)C(C)(C)[C@@H]3[C@@H](O[C@@H]3O[C@H](CO)[C@@H](O)[C@H](O)[C@H]3O[C@@H]3O[C@@H](C)[C@H](O)[C@@H](O)[C@H]3O)C[C@]12C [Ginsenoside Re]
0

Proceed to CC(=O)O[C@@H]1C[C@H]2C(C)(C)C(=O)C=C[C@]2(C)[C@H]2CC[C@@]3(C)[C@H](c4ccoc4)C(=O)[C@H]4O[C@]43[C@@]21C [Epoxyazadiradione]
19

What do you get for O[C@H]1[C@H](O)[C@@H](O)CN2CC[C@H](O)[C@H]12 [Castanospermine] ?
0

Now try CC(C)(O)/C=C/C(=O)[C@](C)(O)[C@H]1[C@H](O)C[C@@]2(C)[C@@H]3CC=C4[C@@H](C[C@H](O)C(=O)C4(C)C)[C@]3(C)C(=O)C[C@]12C [Cucurbitacin D] .
10

What do you have for C=C1[C@@H]2CC[C@@H]3[C@](C2)(C(=O)[C@@H](O)[C@@H]2C(C)(C)[C@H]4CC(=O)[C@@]32CO4)[C@@H]1OC(C)=O [Maoecrystal A] ?
7

# repeat for Nc1nc(N)c(O[C@@H]2O[C@H](CO)[C@@H](O)[C@H](O)[C@H]2O)c(=O)[nH]1 [Vicine]
0

----------
- Tested on: C. elegans
- assay_procedure: microbe, parasite or virus in culture
- particulars: Caenorhabditis elegans, 0 h, read-out: Percentage of motility inhibition 0 h, Table S2, C. elegans SS assay, 110 μM, 0 h, averages of 4 data points
endpoint: inhibition at 110 µM (%)
Report the value in % with no unit label.

Some compounds with recorded inhibition at 110 µM:
• CC(C)(C)[C@H]1CC[C@H](CC2=C(O)C(=O)c3ccccc3C2=O)CC1 = 6
• O=C(OCC1=C[C@@H](O)[C@@H]2C=CO[C@@H](O[C@@H]3O[C@H](CO)[C@@H](O)[C@H](O)[C@H]3O)[C@H]12)c1ccc(O)cc1 [Agnuside] = 2
• CC1(C)[C@@H](O[C@H]2O[C@H](C(=O)O)[C@@H](O)[C@H](O)[C@H]2O[C@@H]2O[C@H](C(=O)O)[C@@H](O)[C@H](O)[C@H]2O)CC[C@]2(C)[C@H]3C(=O)C=C4[C@@H]5C[C@@](C)(C(=O)O)CC[C@]5(C)CC[C@@]4(C)[C@]3(C)CC[C@@H]12 = 0
• C=C(C)[C@@H]1CC[C@]2(CO)CC[C@]3(C)[C@H](CC[C@@H]4[C@@]5(C)CC[C@H](O)C(C)(C)[C@@H]5CC[C@]43C)[C@@H]12 = 0

Value lookup for inhibition at 110 µM; key = CC(=O)OCC1=C[C@@H]2OC(=O)C3=CO[C@@H](O[C@@H]4O[C@H](CO)[C@@H](O)[C@H](O)[C@H]4O)[C@H]1[C@@H]32 [Asperuloside]
0

// repeat for `COC(=O)C1=CO[C@@H](O[C@@H]2O[C@H](CO)[C@@H](O)[C@H](O)[C@H]2O)[C@@H]2[C@@H](C)[C@@H](O)C[C@H]12` and report
11
